The values you see were collected from the supplement of paper PMC10567573.

B1: ZNF207 (parent)
chain: FQPQPVQPQQGYIPPMAQPGLPPV

variants of: B1; test: protein stability index of a GFP-peptide fusion (GPS, HEK-293T) (PSI 1-6); higher = more stable; settings: c terminus: a fixed tail appended;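 further: lentivirally expressed fusions sorted by FACS into six bins by GFP to DsRed ratio, PSI derived from sequencing read proportions per bin multiplied by bin number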
valueType: protein stability index
# respond with the number and nothing more

Worked set:
> print(dat)
                 constructsequence  measuredvalue
1   HQPQPVQPQQGYIPPMAQPGLPPV [F1H]           4.06
2  FQPQPVQPQQGYIPPMAQPWLPPV [G20W]            1.7
3   FSPQPVQPQQGYIPPMAQPGLPPV [Q2S]           3.16
4  FQPQPVQPQQGYIPPYAQPGLPPV [M16Y]           2.82
5   FQPQPVQPSQGYIPPMAQPGLPPV [Q9S]           3.43

// below: protein stability index requested for another variant
Problem: Let me know recorded protein stability index for FQPQPVQPQQGEIPPMAQPGLPPV [Y12E] , thanks.
Result: 3.77
